# assay target: LsrK (Salmonella typhimurium)
# procedure summary: biochemical
# Format: biochemical, S. typhimurium
Counter-ions that a name gives are not always drawn.
Label 1 (yes) when inhibition at 50 µM is at or above 2%; otherwise label 0 (no).

[ask] inhibition at 50 µM >= 2% for N[C@H]1C(O)O[C@H](CO)[C@@H](O)[C@@H]1O (stereo partly shown) [GLUCOSAMINE HYDROCHLORIDE] ?
[reply] 0 (no)

[ask] Is it the case that Cc1cn([C@H]2C[C@H](N=[N+]=[N-])[C@@H](CO)O2)c(=O)[nH]c1=O [ZIDOVUDINE [AZT], ZIDOVUDINE] has inhibition at 50 µM reaching or exceeding 2%?
[reply] 1 (yes)

[ask] Given CN[C@@H]1[C@@H](O[C@H]2O[C@H](CO)[C@@H](N)[C@H](O)[C@H]2O)OC2C[C@@H](N)[C@@H](O[C@H]3[C@H](O)[C@@H](O)[C@H](N)C[C@@H]3N)OC2[C@@H]1O (stereo partly shown) , state whether its inhibition at 50 µM is at least 2%.
[reply] 1 (yes)

[ask] Is inhibition at 50 µM at least 2%? Consider C[n+]1ccccc1/C=N/O [PRALIDOXIME CHLORIDE]
[reply] 0 (no)

[ask] Decide: inhibition at 50 µM of CC1(C)CC2C1CC[C@]1(CBr)CCC3C(CC(=O)O)C(=O)O[C@@]32C1 (stereo partly shown) >= 2%?
[reply] 0 (no)

[ask] Would you say OCCOCCN1CCN(C(c2ccccc2)c2ccc(Cl)cc2)CC1 (stereo not shown) [HYDROXYZINE PAMOATE] shows inhibition at 50 µM at minimum 2%?
[reply] 1 (yes)

[ask] Answer whether inhibition at 50 µM of Cc1cc(NS(=O)(=O)c2ccc(N)cc2)no1 is greater than or equal to 2%.
[reply] 0 (no)

[ask] Can CO[C@H]1[C@H](O)[C@H](O[C@H]2CC[C@@]3(C=O)[C@H](CC[C@@H]4[C@@H]3CC[C@]3(C)[C@@H](C5=CC(=O)OC5)CC[C@]43O)C2)O[C@@H](C)[C@@H]1O [PERUVOSIDE] be said to have inhibition at 50 µM at or above 2%?
[reply] 0 (no)

[ask] Exam item: decide whether the reported inhibition at 50 µM for Oc1ccc(O)cc1 [HYDROQUINONE] is at least 2%.
[reply] 0 (no)

[ask] Does inhibition at 50 µM meet or surpass 2% for C[C@H]1C(=O)CC[C@@H]2[C@]1(C)CC[C@H]1[C@@]2(C)CC[C@@]2(C)[C@@H]3CC(C)(C)CC[C@]3(C)CC[C@]12C ?
[reply] 0 (no)

[ask] Textbook exercise: given the entry S=P(N1CC1)(N1CC1)N1CC1 , state whether its inhibition at 50 µM is greater than or equal to 2%.
[reply] 1 (yes)

[ask] Check this molecule for inhibition at 50 µM at or above 2%: CC(=O)OCC(=O)[C@H]1CC[C@H]2[C@@H]3CCC4=CC(=O)CC[C@]4(C)[C@H]3CC[C@]12C [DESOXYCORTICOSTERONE ACETATE]
[reply] 0 (no)

[ask] Evaluate Cc1cccc(C)c1NC(=O)c1ccccc1C(=O)O [FTAXILIDE] : inhibition at 50 µM at minimum 2%?
[reply] 1 (yes)

[ask] Is inhibition at 50 µM for CC(=O)N(O)CCCCCNC(=O)CCC(=O)N(O)CCCCCNC(=O)CCC(=O)N(O)CCCCCN [DEFEROXAMINE MESYLATE] at or above 2%?
[reply] 0 (no)

[ask] Check this molecule for inhibition at 50 µM at or above 2%: O=c1c2ccccc2oc2ccccc12
[reply] 0 (no)

[ask] Assess whether reported inhibition at 50 µM for COc1cc2nc(N3CCN(C(=O)C4CCCO4)CC3)nc(N)c2cc1OC (stereo not shown) [TERAZOSIN HYDROCHLORIDE] sits at 2% or higher.
[reply] 0 (no)

[ask] Does the reported inhibition at 50 µM for Cc1cc2c(C(C)C)c(O)c(O)c(C=O)c2c(O)c1-c1c(C)cc2c(C(C)C)c(O)c(O)c(C=O)c2c1O fall at or above the 2% mark?
[reply] 1 (yes)

###

Please provide measured Inhibition (%) for the entries that follow.
# assay target: LsrK (Salmonella typhimurium)
# procedure summary: biochemical
# Format: biochemical, S. typhimurium
# experimental context: 50 µM
Format: numeric value only, no unit, no commentary.

[ask] // map COc1ccc2oc(-c3ccccc3OC)cc(=O)c2c1 to recorded Inhibition (%) (system: LsrK (Salmonella typhimurium))
[reply] 1

[ask] Checklist item: Inhibition (%) tested on LsrK (Salmonella typhimurium), entry O=c1c(O)c(-c2ccccc2)oc2cc(O)ccc12 [3.7-DIHYDROXYFLAVONE] , value?
[reply] 0

[ask] Any idea what Inhibition (%) came out for CC1(C)C2CC(=O)[C@]3(C)C(CC[C@@]4(C)[C@H](c5ccoc5)OC(=O)C5OC543)[C@@]2(C)[C@@H](O)C[C@H]1O (some centres unmarked) on LsrK (Salmonella typhimurium)?
[reply] 2

[ask] Kindly state the measured Inhibition (%) obtained for C=N[C@@H](C(=O)N[C@@H]1C(=O)N2[C@@H]1SC(C)(C)[C@@H]2C(=O)[O-])c1ccccc1.[Na+] [METAMPICILLIN SODIUM] with LsrK (Salmonella typhimurium).
[reply] 2

[ask] Param readout= Inhibition (%); system= LsrK (Salmonella typhimurium); entry= COc1cc(O)c(C)c(O)c1 [2.6-DIHYDROXY-4-METHOXYTOLUENE] ; returns value.
[reply] 1

[ask] # returns recorded Inhibition (%) (system: LsrK (Salmonella typhimurium)) for O=C1C(Cl)=C(Cl)C(=O)c2c(O)ccc(O)c21 [2.3-DICHLORO-5.8-DIHYDROXYNAPTHOQUINONE]
[reply] 30

[ask] Missing value: Inhibition (%), LsrK (Salmonella typhimurium), entry CC(C)=CCC/C(C)=C/CC/C(C)=C/CC/C(C)=C/CC/C(C)=C/CC/C(C)=C/CC/C(C)=C/CC/C(C)=C/CC/C(C)=C/CO . Fill in?
[reply] 1

[ask] What value of Inhibition (%) on LsrK (Salmonella typhimurium) does COc1cc(O)c(C(C)=O)c(O)c1 have?
[reply] 2

[ask] Field: Inhibition (%) (LsrK (Salmonella typhimurium)). Entry: CC(=O)O[C@@H]1C[C@]2(C)[C@@H](C(C)=O)CC[C@H]2[C@@H]2CCC3=CC(=O)CC[C@]3(C)[C@H]21 [11a-ACETOXYPROGESTERONE]
[reply] 23

[ask] Write down the reported Inhibition (%) of O=c1c(-c2ccccc2)coc2cc(O)cc(O)c12 [5.7-DIHYDROXYISOFLAVONE] , test system: LsrK (Salmonella typhimurium).
[reply] 106

[ask] # query: Inhibition (%) | item C=C(C)CCCC(C)CCOC(C)=O (centres unmarked) [RHODINYL ACETATE] | system: LsrK (Salmonella typhimurium)
[reply] 0

[ask] What reported Inhibition (%) corresponds to O=c1ccc2cc(O[C@@H]3O[C@H](CO)[C@@H](O)[C@H](O)[C@H]3O)c(O)cc2o1 on LsrK (Salmonella typhimurium)?
[reply] 1

[ask] Recorded Inhibition (%) for CCOC(=O)c1ncn2c1CN(C)C(=O)c1cc(F)ccc1-2 with LsrK (Salmonella typhimurium), please?
[reply] 0

[ask] Enter reported Inhibition (%) observed with LsrK (Salmonella typhimurium) for COC(=O)C[C@H]1C(C)(C)C2(O)OC34CC2C(=O)[C@]1(C)C3CC[C@]1(C)C4=CC(=O)O[C@H]1c1ccoc1 (stereo partly drawn) [8beta-HYDROXYCARAPIN. 3.8-HEMIACETAL]
[reply] 0

###

# assay target: LsrK (Salmonella typhimurium, UniProt Q8ZKQ6)
# Sequence (Q8ZKQ6 whole entry): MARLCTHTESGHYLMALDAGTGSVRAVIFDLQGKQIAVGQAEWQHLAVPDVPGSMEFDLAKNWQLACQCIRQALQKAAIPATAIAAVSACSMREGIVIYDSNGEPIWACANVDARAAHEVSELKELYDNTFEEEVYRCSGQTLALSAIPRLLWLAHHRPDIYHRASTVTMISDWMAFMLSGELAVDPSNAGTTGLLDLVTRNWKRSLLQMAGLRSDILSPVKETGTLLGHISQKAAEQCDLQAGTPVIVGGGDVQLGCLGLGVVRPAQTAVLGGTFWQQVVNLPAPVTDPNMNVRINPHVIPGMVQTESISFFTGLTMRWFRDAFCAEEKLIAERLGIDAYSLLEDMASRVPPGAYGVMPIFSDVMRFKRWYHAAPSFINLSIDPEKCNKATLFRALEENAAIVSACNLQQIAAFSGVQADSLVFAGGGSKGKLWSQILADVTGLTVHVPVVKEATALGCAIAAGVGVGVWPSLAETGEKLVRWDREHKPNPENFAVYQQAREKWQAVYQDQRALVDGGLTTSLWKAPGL
# procedure summary: biochemical
# Type: biochemical, S. typhimurium
Please provide measured inhibition at 50 µM for the entries that follow.
Quick note: give the figure in %, leave out the unit.

[ask] Which inhibition at 50 µM is listed for CO[C@H]1C[C@@H]2CC[C@@H](C)[C@@](O)(O2)C(=O)C(=O)N2CCCC[C@H]2C(=O)O[C@H]([C@H](C)C[C@@H]2CC[C@@H](O)[C@H](OC)C2)CC(=O)[C@H](C)/C=C(\C)[C@@H](O)[C@@H](OC)C(=O)[C@H](C)C[C@H](C)/C=C/C=C/C=C/1C ?
[reply] 4

[ask] Which value of inhibition at 50 µM has been reported for CC(C)Nc1ncccn1 in the records?
[reply] 0

[ask] Record request: inhibition at 50 µM value, item CC(C)(CO)[C@@H](O)C(=O)NCCC(=O)NCCSSCCNC(=O)CCNC(=O)[C@H](O)C(C)(C)CO
[reply] 0

[ask] Record request: inhibition at 50 µM value, item C[C@]12CCC(=O)C=C1C=C[C@@H]1[C@@H]2CC[C@@]2(C)[C@H]1CC[C@@]21CCC(=O)O1
[reply] 1

[ask] Suppose we examine the molecule CCCCC1(COC(=O)CCC(=O)O)C(=O)N(c2ccccc2)N(c2ccccc2)C1=O ; what inhibition at 50 µM value has been reported?
[reply] 8
